Each recorded value in this set is attributed to patent US10087188B2.

Target: BTK enzyme (recombinant full-length BTK, hBTK) (Homo sapiens (Human), UniProt Q06187)
Sequence (Q06187 whole entry): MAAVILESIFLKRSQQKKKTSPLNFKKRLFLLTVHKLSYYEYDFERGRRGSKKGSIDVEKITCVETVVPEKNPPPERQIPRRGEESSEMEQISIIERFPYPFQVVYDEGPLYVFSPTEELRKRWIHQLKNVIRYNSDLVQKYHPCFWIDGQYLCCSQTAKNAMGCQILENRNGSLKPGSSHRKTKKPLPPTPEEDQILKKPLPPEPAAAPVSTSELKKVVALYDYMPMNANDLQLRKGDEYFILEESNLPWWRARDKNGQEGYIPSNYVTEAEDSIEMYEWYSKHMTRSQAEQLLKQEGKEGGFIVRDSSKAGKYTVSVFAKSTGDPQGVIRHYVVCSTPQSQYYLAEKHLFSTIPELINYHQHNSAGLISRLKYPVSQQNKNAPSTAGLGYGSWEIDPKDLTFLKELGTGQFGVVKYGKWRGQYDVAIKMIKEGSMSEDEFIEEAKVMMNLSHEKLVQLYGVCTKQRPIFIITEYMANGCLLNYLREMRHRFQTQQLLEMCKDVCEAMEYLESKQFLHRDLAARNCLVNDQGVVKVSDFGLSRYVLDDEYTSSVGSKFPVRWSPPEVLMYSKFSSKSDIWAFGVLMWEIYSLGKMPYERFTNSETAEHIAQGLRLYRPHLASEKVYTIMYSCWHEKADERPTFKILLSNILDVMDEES
Experiment: Btk enzyme activity assay, LANCE TR-FRET
Settings: 50 pM hBTK, 2 μM biotin-A5-peptide, 25 μM ATP; 60 minute compound & enzyme incubation; read-out: BTK binding IC50
pIC50: −log10 of the molar value.
Label scheme for pIC50: lower than 9 is not met, 9 and above is met.

Study these solved cases before continuing.
Query :: Has "Nc1nccn2c([C@@H]3CCC[C@H](C(=O)O)C3)nc(-c3ccc(C(=O)Nc4cc(C(F)(F)F)ccn4)cc3F)c12" a recorded pIC50 greater than or equal to 9?
Result :: met

Query :: Has "C[C@]1(C(=O)O)CC[C@H](N2CCO[C@@H](c3nc(-c4ccc(C(=O)Nc5ccccn5)cc4)c4c(N)ncc(Cl)n34)C2)CC1" a recorded pIC50 greater than or equal to 9?
Result :: not met

Query :: Has "Nc1nccn2c(N3CC[C@@H](C(=O)O)C3)nc(-c3ccc(C(=O)Nc4cc(C(F)(F)F)ccn4)cc3)c12" a recorded pIC50 greater than or equal to 9?
Result :: not met

***
Query :: Has "Nc1nccn2c(C34CCC(C(=O)O)(CC3)CC4)nc(-c3ccc(C(=O)Nc4cc(C(F)(F)F)ccn4)cc3F)c12" a recorded pIC50 greater than or equal to 9?
Result :: met

Query :: Has "C[C@]1(C(=O)O)CC[C@@H](N2CCO[C@@H](c3nc(-c4ccc(C(=O)Nc5cc(C6CC6)ccn5)cc4F)c4c(N)nccn34)C2)CC1" a recorded pIC50 greater than or equal to 9?
Result :: not met
